- assayed system: T1, oligopeptide ATYPSGH (SEQ ID NO: 103)
- T1 construct: Synthetic peptide, part of Loop C of AQP3
- T1 peptide: ATYPSGH
- experimental details: ELISA on coated peptide
measurement type: binding signal (plate reader)
Could you keep your reply to the number by itself?

Prompt: What measured binding signal (plate reader) goes with SC-F8 (IgG) (antibody, V domains shown, also called anti AQP3 antibody SC-F8) VH: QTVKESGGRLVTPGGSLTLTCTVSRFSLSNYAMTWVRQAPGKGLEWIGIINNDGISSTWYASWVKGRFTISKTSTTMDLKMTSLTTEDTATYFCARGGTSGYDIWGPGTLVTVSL VL: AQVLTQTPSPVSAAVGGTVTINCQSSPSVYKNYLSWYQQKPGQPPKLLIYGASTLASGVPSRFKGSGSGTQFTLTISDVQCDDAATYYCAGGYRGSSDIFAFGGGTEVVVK ?
Response: 3.81

Prompt: Would you kindly repeat that for Antibody J (antibody, mouse IgG2a, kappa, V domains shown, also called anti AQP3 antibody J) VH: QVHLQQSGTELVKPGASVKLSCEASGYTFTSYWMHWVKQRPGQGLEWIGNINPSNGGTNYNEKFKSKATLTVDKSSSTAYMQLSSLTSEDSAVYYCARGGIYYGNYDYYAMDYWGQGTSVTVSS VL: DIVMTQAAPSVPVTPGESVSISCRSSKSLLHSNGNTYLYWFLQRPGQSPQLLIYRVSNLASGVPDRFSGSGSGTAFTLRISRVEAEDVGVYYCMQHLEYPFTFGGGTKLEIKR ?
Response: 0.045

Prompt: Would you kindly repeat that for Antibody C (antibody, mouse IgG2a, kappa, V domains shown, also called anti AQP3 antibody C) VH: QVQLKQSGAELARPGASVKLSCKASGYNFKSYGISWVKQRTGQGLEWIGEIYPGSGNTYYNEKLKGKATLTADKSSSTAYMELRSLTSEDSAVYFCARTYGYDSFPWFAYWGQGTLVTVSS VL: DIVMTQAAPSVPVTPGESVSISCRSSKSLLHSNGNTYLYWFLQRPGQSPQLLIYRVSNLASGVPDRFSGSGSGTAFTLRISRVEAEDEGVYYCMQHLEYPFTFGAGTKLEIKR ?
Response: 0.047

Prompt: Would you kindly repeat that for BC-B10 (IgG) (antibody, V domains shown, also called anti AQP3 antibody BC-B10) VH: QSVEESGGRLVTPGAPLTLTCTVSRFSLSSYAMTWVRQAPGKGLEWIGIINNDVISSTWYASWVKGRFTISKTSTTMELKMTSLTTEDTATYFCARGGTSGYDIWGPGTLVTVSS VL: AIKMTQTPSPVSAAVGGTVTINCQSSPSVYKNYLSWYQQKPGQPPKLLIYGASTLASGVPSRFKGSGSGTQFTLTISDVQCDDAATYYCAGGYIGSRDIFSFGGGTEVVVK ?
Response: 3.91

Prompt: Would you kindly repeat that for BC-H9 (IgG) (antibody, V domains shown, also called anti AQP3 antibody BC-H9) VH: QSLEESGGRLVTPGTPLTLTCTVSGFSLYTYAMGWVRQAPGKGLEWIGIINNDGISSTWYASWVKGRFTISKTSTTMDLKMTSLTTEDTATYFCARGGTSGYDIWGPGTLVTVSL VL: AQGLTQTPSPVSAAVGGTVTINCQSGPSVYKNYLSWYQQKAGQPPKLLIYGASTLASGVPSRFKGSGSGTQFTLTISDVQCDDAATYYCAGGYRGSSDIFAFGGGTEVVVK ?
Response: 3.16

Prompt: Would you kindly repeat that for SC-B6 (IgG) (antibody, V domains shown, also called anti AQP3 antibody SC-B6) VH: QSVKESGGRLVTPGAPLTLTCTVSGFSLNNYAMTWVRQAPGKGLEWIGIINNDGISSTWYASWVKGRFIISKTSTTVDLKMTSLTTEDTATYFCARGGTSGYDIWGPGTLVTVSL VL: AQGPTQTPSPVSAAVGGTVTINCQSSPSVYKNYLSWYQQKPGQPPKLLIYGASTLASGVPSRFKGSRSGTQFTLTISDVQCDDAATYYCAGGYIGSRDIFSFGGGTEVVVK ?
Response: 3.44
